# Assay System: Sodium-dependent dopamine transporter (Rattus norvegicus, UniProt P23977)
# Sequence (P23977 whole entry): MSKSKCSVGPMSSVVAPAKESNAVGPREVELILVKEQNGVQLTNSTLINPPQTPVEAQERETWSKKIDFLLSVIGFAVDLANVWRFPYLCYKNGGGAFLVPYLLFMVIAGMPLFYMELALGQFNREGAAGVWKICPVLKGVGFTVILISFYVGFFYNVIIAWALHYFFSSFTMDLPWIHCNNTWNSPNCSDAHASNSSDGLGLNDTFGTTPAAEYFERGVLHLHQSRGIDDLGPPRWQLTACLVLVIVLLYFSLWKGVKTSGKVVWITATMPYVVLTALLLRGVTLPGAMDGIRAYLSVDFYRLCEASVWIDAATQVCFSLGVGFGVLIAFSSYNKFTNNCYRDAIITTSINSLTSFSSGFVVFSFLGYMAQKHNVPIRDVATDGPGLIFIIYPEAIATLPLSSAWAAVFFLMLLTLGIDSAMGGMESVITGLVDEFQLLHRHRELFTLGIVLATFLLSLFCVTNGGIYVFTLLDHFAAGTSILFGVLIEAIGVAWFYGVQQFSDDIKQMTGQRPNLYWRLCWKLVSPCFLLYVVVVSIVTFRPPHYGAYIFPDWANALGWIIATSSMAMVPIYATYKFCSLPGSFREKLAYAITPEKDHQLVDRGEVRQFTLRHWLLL
# Assay Procedure: The compound has been evaluated for its binding affinity towards Dopamine transporter by displacing the radioligand [3H]GBR-12935 (1.0 nM) in rat striatal synaptosomes.
Readout Type: pKi
Convention used: pKi is expressed as -log10 of the molar concentration.

Below are worked cases with known answers.
Molecule	pKi
Oc1ccc(CC2NCCc3ccccc32)cc1O (stereo not drawn)	4.67
c1ccc(CC2NCCc3ccccc32)cc1 (stereo not drawn)	4.44

The recorded pKi for Oc1cc2c(cc1O)C(Cc1ccccc1)NCC2 (stereo not drawn) is 4.24
